# study.system: T1, recombinant human PD-1 Fc chimera (human, UniProt Q15116 25-167)
# T1 construct: Bought (R&D 1086-PD); Labelled with europium cryptate in the PD-L2 HTRF assay; also called human PD-1 (R&D Systems cat no. 1086-PD); human PD-1-huFc; not shown: human Fc of the bought chimera
# T1 sequence (Q15116 25-167, change not shown): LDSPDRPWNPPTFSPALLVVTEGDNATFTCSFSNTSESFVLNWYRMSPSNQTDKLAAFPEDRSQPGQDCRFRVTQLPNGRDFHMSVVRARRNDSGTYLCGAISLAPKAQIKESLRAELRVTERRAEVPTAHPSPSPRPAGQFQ
# procedure.text: BLI (Octet), PD-1-huFc on biosensor, 1:1 fit
Exercise: for every item that follows, state its recorded pKd.
One number for each entry, as −log10 of the molar value.

These recorded examples may help you get a feel for the data.
Humabody VH 2.52 (VHH, human VH single domain antibody) VHH: EVQLVESGGGVVRPGGSLRLSCAASGFTFDDYAMSWVRQAPGKGLEWVSGITWNGGSTGYADSVKDRFTISRDNAKNSLYLQMNSLRAEDTALYYCVRDKYSYAWSYDVFDIWGQGTMVTVSS ... 8.48
Humabody VH 2.13 (VHH, human VH single domain antibody) VHH: EVQLVESGGGVVRPGGSLRLSCAASGFTFDDYAMSWVRQAPGKGLEWVSGITWNRGSTGYADSVKGRFTISRDNAKNSLYLQMNSLRAEDTALYYCVRDKYSYAWSYDDFDIWGQGTMVTVSS ... 7.60
Humabody VH 1.33 (VHH, human VH single domain antibody) VHH: EVQLVESGGGLVQPGRSLRLSCAASGFTFDDYAMHWVRQAPGKDLEWVSGISWNGGSYGYADSVKGRFTISRDNAKNSLYLQMNSLRAEDTALYYCVREKGPGLTGSTADYYGLDAWGQGTMVTVSS ... 8.70

Okay, here is my list. What is pKd for each of these?
1. Humabody VH 2.39 (VHH, human VH single domain antibody) VHH: EVQLVESGGGVVRPGGSLRLSCAASGFTFDDYAESWVRQAPGKGLEWVSGITWNGGSTGYADSVKDRFTISRDNAKNSLYLQMNSLRAEDTALYYCVRDKYSYAWSYDGFDIWGQGTMVTVSS
2. Humabody VH 2.37 (VHH, human VH single domain antibody) VHH: EVQLVESGGGVVRPGGSLRLSCAASGFTFDDYALSWVRQAPGKGLEWVSGITWNGGSTGYADSVKDRFTISRDNAKNSLYLQMNSLRAEDTALYYCVRDKYSYAWSYDGFDIWGQGTMVTVSS
3. Humabody VH 1.34 (VHH, human VH single domain antibody) VHH: EVQLVESGGGLVQPGRSLRLSCAASGFTFDDYAMHWVRQAPGKDLEWVSGISWNGGSQGYADSVKGRFTISRDNAKNSLYLQMNSLRAEDTALYYCVREKGPGLTGSTADYYGLDAWGQGTMVTVSS

1: 8.80; 2: 8.47; 3: 8.44

Okay, here is my list. What is pKd for each of these?
1. VH single domain antibody 2.1 (VHH, human VH single domain antibody; also called Humabody VH 2.1; clone 2.1) VHH: EVQLVESGGGVVRPGGSLRLSCAASGFTFDDYAMSWVRQAPGKGLEWVSGITWNGGSTGYADSVKDRFTISRDNAKNSLYLQMNSLRAEDTALYYCVRDKYSYAWSYDGFDIWGQGTMVTVSS
2. Humabody VH 1.37 (VHH, human VH single domain antibody) VHH: EVQLVESGGGLVQPGRSLRLSCAASGFTFDDYAFHWVRQAPGKDLEWVSGISWNGGSMGYADSVKGRFTISRDNAKNSLYLQMNSLRAEDTALYYCVREKGPGLTGSTADYYGLDAWGQGTMVTVSS
3. Humabody VH 2.53 (VHH, human VH single domain antibody) VHH: EVQLVESGGGVVRPGGSLRLSCAASGFTFDDYAMSWVRQAPGKGLEWVSGITWNGGSTGYADSVKDRFTISRDNAKNSLYLQMNSLRAEDTALYYCVRDKYSYAWSYDDFDIWGQGTMVTVSS
4. VH single domain antibody 1.1 (VHH, human VH single domain antibody (Humabody), purified through its C-terminal His tag; also called Humabody 1.1; clone 1.1) VHH: EVQLLESGGGSVQPGRSLRLSCAASGFTFDDHAMHWVRQAPGKGLEWVSGISWNSGSMGYADSVKDRFTISRDNAKSSLYLQMNSLRAEDTALYYCVREKGPGLTGSTADYYGLDVWGQGTMVTVSS

[8.59, 8.26, 7.80, 8.72]
